- experimental.system: Voltage-gated potassium channel subunit beta-2 (Rattus norvegicus)
- test: enhancers of rat Kvbeta2 NADPH turnover – biochemical, NADPH fluorescence, primary screen (AID 623);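 also: fluorescence intensity change per second fitted from 20 to 320 s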
- condition.context: Recombinant KvBeta, NADPH fluorescence decrease slope, 10 min; at 10 µM; active compounds read low
outcome.measure: NADPH fluorescence slope
// no unit string in output, number only

These recorded examples may help you get a feel for the data.
molecule=COc1ccc(CNC(=O)COC(=O)c2n[nH]c3ccccc23)cc1OC outcome_measure="NADPH fluorescence slope" reading=1.4e-05
molecule=CN(C)CCCN1c2ccccc2Sc2ccccc21 outcome_measure="NADPH fluorescence slope" reading=-7e-05
molecule=CCCn1c2ccccc2c2nnc(SCC(=O)OCC)nc21 outcome_measure="NADPH fluorescence slope" reading=-7.3e-05

// query NADPH fluorescence slope value for entry c1nc(NCC2CCCO2)c2[nH]cnc2n1 (stereo unspecified)
1.9e-05

Try O=C(NCCN1CCOCC1)c1csc2c1CCCC2 next.
-1.1e-05

Try CCOC(=O)c1nnn(CC(=O)Nc2cccc(OC)c2)c1C(=O)OCC next.
-3.9e-05

Try COc1ccc(/C(O)=C2/C(=O)C(=O)N(CC3CCCO3)C2c2cccc(OC)c2)cc1 (stereo unspecified) next.
-3.2e-05

Try CCOc1ccc(N(CC(=O)NCC2CCCO2)S(=O)(=O)c2ccc(OC)c(OC)c2)cc1 (stereo unspecified) next.
-3.5e-05

Try O=C(O)CCc1ccc(-c2ccccc2)n1CC(=O)O next.
-7.8e-05

Try CNC(=O)c1c(O)c2cccc3c2n(c1=O)CC3 next.
-5.3e-05

Try CNC(=O)c1ccccc1NC(=O)c1c(O)c2c([nH]c1=O)CCCC2 next.
-5.8e-05

---

- test: TLR3 IRF3 reporter activation blockers – cell-based, poly I:C stimulus, luciferase, 10K MLSCN set, primary screen (AID 602277)
- condition.context: HEK293-TLR3 RL24 IRF3 luciferase reporter, at 10 µM, active compounds read high
The source made the active and inactive calls.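 How the source made its calls: active means inhibition of the reporter signal at or above 50%; inactive means inhibition below 50%.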
outcome.measure: inhibition

compound="CCCCc1cc(=O)oc2cc(C)cc(OC(C)C(=O)O)c12 (stereo unspecified)" reading="21.5% (inactive)"
compound=COC(=O)c1cc(NS(=O)(=O)c2ccc3c(c2)CCC(=O)N3)cc(C(=O)OC)c1 reading="79.6% (active)"
compound=Cc1ccc(-c2nnc(-c3ccc(Br)cc3)o2)o1 reading="-108% (inactive)"
compound=CC(C)CC(=O)CN1C(=O)C2(OCCO2)c2ccccc21 reading="-9.91% (inactive)"
compound="CC1CCCC(C(=O)OCc2ccccc2)N1 (stereo unspecified)" reading="20.1% (inactive)"
compound="CCCOc1ccc(C2c3c(oc4ccccc4c3=O)C(=O)N2CCCN2CCOCC2)cc1 (stereo unspecified)" reading="21.3% (inactive)"

// query inhibition value for entry NC(=O)c1c(NC(=O)CSc2nnc(-c3ccco3)n2-c2ccccc2)sc2c1CCC2
32.9% (inactive)

Try Cc1c(C(=O)O)oc2ccc(S(=O)(=O)NCc3ccccc3)cc12 next.
11.8% (inactive)

Try CCNC(=O)CC1C(=O)N(c2ccc(F)cc2)C(=O)N1CCC(C)C (stereo unspecified) next.
15.9% (inactive)

Try O=C(CCCn1c(=O)c2sccc2n(Cc2ccc(F)cc2)c1=O)NCc1ccco1 next.
15.5% (inactive)

Try CCNC(=O)N1c2ccc(OCC)cc2C(C)=CC1(C)C next.
4.09% (inactive)
